Reported pIC50 for target or system human adrenergic beta2 receptors (Homo sapiens (Human), UniProt P07550), by entry.
Please keep in mind that pIC50 is minus log10 of the molar concentration; only the number is needed.

// below: answered compounds
INSERT INTO measurements (compound, assay_endpoint, result) VALUES
  ('COc1cc(-c2noc(CCCN(C)[C@H]3CC[C@H](OC(=O)C(O)(c4cccs4)c4cccs4)CC3)n2)c(Cl)cc1CNC[C@H](O)c1ccc(O)c2[nH]c(=O)ccc12 (relative stereo) [Example 9]', 'pIC50', 8.66),
  ('CC(Cc1ccc(OCC(=O)NCCN[C@H]2CC[C@H](OC(=O)C(O)(c3cccs3)c3cccs3)CC2)cc1)NC[C@H](O)c1ccc(O)c2[nH]c(=O)ccc12 (relative stereo) [Example 20]', 'pIC50', 8.51);

Turning to the following compound.
Readout pIC50 for CN(CCCn1c(=O)oc2cc(CCNC[C@H](O)c3ccc(O)c4[nH]c(=O)ccc34)ccc21)[C@H]1CC[C@H](OC(=O)C(O)(c2cccs2)c2cccs2)CC1 (relative stereo) [Example 19] , test system human adrenergic beta2 receptors (Homo sapiens (Human), UniProt P07550), was 7.21
